Test system: Respiratory syncytial virus
Experiment: Antiviral activity against Respiratory syncytial virus (RSV) infected in human APC-126 cells assessed as replicon by measuring protein adjusted effective concentration in the presence of 40% human serum measured after 3 days by Renilla Glo assay
Format: functional, organism-based
Settings: 72 h
# EC50 listing for each entry below

                                item_smiles  result
0  COc1cc(C(=O)NC[C@](O)(c2cc(C(C)(C)O)c(F)c(-c3ccc(F)cc3)n2)C(F)(F)F)cc2cccnc12  310 nM

INPUT: Request - read-out EC50 | tested on Respiratory syncytial virus | molecule COc1cc(C(=O)NC[C@](O)(c2cc(C(C)(C)O)c(F)c(-c3ccc(F)cc3)n2)C(F)(F)F)cc2cc(C)c(F)nc12
OUTPUT: 48 nM

INPUT: Cool, now COc1cc(C(=O)NC[C@](O)(c2cc(C(C)(C)O)c(F)c(-c3ccc(F)cc3)n2)C(F)(F)F)cc2cc(Cl)nnc12
OUTPUT: 110 nM

INPUT: Cool, now COc1cc(C(=O)NC[C@](O)(c2cc(C(C)(C)O)c(F)c(-c3ccc(F)cc3)n2)C(F)(F)F)cc2cc(F)nnc12
OUTPUT: 330 nM

INPUT: Cool, now COc1cc(C(=O)NC[C@](O)(c2cc(C(C)(C)O)c(F)c(-c3ccc(F)cc3)n2)C(F)(F)F)cc2cc(C)nnc12
OUTPUT: 13 nM

INPUT: Cool, now COc1cc(C(=O)NC[C@](O)(c2cc(C(C)(C)O)c(F)c(-c3ccc(F)cc3)n2)C(F)(F)F)cc2cc(C(F)F)nnc12
OUTPUT: 190 nM

INPUT: Cool, now COc1cc(C(=O)NC[C@](O)(c2cc(C(C)(C)O)c(F)c(-c3ccc(F)cc3)n2)C(F)(F)F)cc2cc(C3CC3)nnc12
OUTPUT: 225 nM

INPUT: Cool, now COc1nc2c(OC)cc(C(=O)NC[C@](O)(c3cc(C(C)(C)O)c(F)c(-c4ccc(F)cc4)n3)C(F)(F)F)cc2cc1C
OUTPUT: 1690 nM

###

# hepatocyte CLint at 1 µM listing for each entry below
Assay: Metabolic stability in human hepatocytes assessed as intrinsic clearance per 10^6 cells at 1 uM measured upto 180 mins by LC-MS/MS analysis
Assay type: ADME, cell-based, Hepatocyte
Settings: read-out: CLH

Illustrative cases are given below, each with its answer.
>>> df
                                item_smiles                  result
0  COc1cc(C(=O)NC[C@](O)(c2cc(C(C)(C)O)c(F)c(-c3ccc(F)cc3)n2)C(F)(F)F)cc2cc(C(F)F)nnc12  < 1.9 µL/min/1e6 cells
1  COc1cc(C(=O)NC[C@](O)(c2cc3c(c(-c4ccc(F)cc4)n2)OC[C@]3(C)NS(C)(=O)=O)C(F)(F)F)cc2nc(N)sc12     12 µL/min/1e6 cells

INPUT: Which value of hepatocyte CLint at 1 µM has been reported for COc1cc(C(=O)NC[C@](O)(c2cc(C(C)(C)O)c(F)c(-c3ccc(F)cc3)n2)C(F)(F)F)cc2cc(C3CC3)nnc12 in the records?
OUTPUT: < 1.2 µL/min/1e6 cells

INPUT: Cool, now COc1cc(C(=O)NC[C@](O)(c2cc3c(c(-c4ccc(F)cc4)n2)OC[C@]3(C)N)C(F)(F)F)ccc1OC[C@@H](C)O
OUTPUT: 31 µL/min/1e6 cells

INPUT: Cool, now COc1cc(C(=O)NC[C@](O)(c2cc(C(C)(C)O)c(F)c(-c3ccc(F)cc3)n2)C(F)(F)F)cc2cc(C)cnc12
OUTPUT: 6.6 µL/min/1e6 cells

INPUT: Cool, now COc1cc(C(=O)NC[C@](O)(c2cc3c(c(-c4ccc(F)cc4)n2)OC[C@]3(C)NS(C)(=O)=O)C(F)(F)F)cn2cc(CO)nc12
OUTPUT: 4.3 µL/min/1e6 cells

INPUT: Cool, now COc1cc(C(=O)NC[C@](O)(c2cc3c(c(-c4ccc(F)cc4)n2)OC[C@]3(C)NC(C)=O)C(F)(F)F)cc2cc(C)cnc12
OUTPUT: 4.9 µL/min/1e6 cells
